Data provenance is patent US11186544B2.

biological target: UniProtKB P21462; experiment: FPR1 cyclic adenosine monophosphate (cAMP) assay; settings: CHO cells overexpressing human FPR1; inhibition of forskolin (10 μM) stimulated cAMP; read-out: hFPR1 cAMP EC50
Sequence (P21462 whole entry): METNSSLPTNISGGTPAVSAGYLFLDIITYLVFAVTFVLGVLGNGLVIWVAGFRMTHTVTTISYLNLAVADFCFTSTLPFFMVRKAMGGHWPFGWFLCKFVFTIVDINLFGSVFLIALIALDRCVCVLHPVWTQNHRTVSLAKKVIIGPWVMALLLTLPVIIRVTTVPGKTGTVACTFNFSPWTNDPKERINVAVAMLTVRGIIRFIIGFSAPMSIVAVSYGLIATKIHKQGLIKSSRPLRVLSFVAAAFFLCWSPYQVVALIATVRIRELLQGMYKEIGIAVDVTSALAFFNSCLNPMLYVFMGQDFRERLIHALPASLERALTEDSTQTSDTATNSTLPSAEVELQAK
Measurement Name: EC50 (nM)

[P] COc1ccc(NC(=O)N[C@@H]2CCCN(c3ccc(-c4ccccc4NS(C)(=O)=O)cc3)C2=O)cc1
[Q] COc1cnc(NC(=O)N[C@@H]2CCCN(c3ccc(-c4ccccc4NS(C)(=O)=O)c(F)c3)C2=O)c(F)c1
Form field 'greater EC50' accepts P or Q ; which applies? // output: label of the selected item
Q

* * *

target: UniProt P25090; assay: FPR2 cyclic adenosine monophosphate (cAMP) assay; format: cell-based; details: CHO cells overexpressing human FPR2; inhibition of forskolin (5 μM) stimulated cAMP; read-out: hFPR2 cAMP2 EC50
Sequence (P25090 whole entry): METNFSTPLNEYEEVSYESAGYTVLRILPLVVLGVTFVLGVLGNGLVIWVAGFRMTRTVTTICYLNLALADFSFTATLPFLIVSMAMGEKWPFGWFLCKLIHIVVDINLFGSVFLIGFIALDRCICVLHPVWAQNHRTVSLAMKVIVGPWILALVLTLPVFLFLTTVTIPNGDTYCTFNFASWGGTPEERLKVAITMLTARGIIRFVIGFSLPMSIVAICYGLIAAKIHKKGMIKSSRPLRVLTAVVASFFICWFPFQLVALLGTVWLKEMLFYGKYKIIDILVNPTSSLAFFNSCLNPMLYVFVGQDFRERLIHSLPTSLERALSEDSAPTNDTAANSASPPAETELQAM
Measurement Name: EC50 (nM)

[P] CS(=O)(=O)c1ccccc1-c1ccc(N2CCCC(NC(=O)Nc3ccc(Cl)nn3)C2=O)c(F)c1 (stereo not shown)
[Q] CN(c1ncccc1-c1ccc(N2CCC[C@@H](NC(=O)Nc3ccc(C(F)(F)F)cc3)C2=O)cc1)S(C)(=O)=O
[R] Cc1cnc(NC(=O)N[C@@H]2CCCN(c3ccc(-c4ccccc4NS(C)(=O)=O)cc3F)C2=O)cn1
Put the above entries in order of falling EC50. Put the labels in the requested order and write them down.
P, R, Q
